pIC50: recorded values
Assay: Displacement of [32P]NAADP from NAADP receptor in sea urchin microsomes after 90 mins by liquid scintillation counting
Design: species or system Strongylocentrotus purpuratus, Microsome
Schema: pIC50 number; meaning minus log10 of the concentration expressed in molar units.

QUERY: Could you tell me which pIC50 is on file for Nc1ncnc2c1ncn2[C@@H]1O[C@H](COP(=O)(O)OP(=O)(O)OC[C@@H]2O[C@H]([n+]3ccc(-c4ccccc4)c(C(=O)[O-])c3)[C@@H](O)[C@H]2O)[C@@H](O)[C@H]1OP(=O)(O)O ?
RESULT: 6.07

QUERY: Entry under review: CCCCc1cc[n+]([C@H]2O[C@@H](COP(=O)(O)OP(=O)(O)OC[C@H]3O[C@@H](n4cnc5c(N)ncnc54)[C@H](OP(=O)(O)O)[C@@H]3O)[C@H](O)[C@@H]2O)cc1C(=O)[O-] . Reported pIC50?
RESULT: 6.33

QUERY: I would be grateful if you could share the reported pIC50 for Cc1cc[n+]([C@H]2O[C@@H](COP(=O)(O)OP(=O)(O)OC[C@H]3O[C@@H](n4cnc5c(N)ncnc54)[C@H](OP(=O)(O)O)[C@@H]3O)[C@H](O)[C@@H]2O)cc1C(=O)[O-] .
RESULT: 6.83

QUERY: Report pIC50 for Cc1cc(C(=O)[O-])c[n+]([C@H]2O[C@@H](COP(=O)(O)OP(=O)(O)OC[C@H]3O[C@@H](n4cnc5c(N)ncnc54)[C@H](OP(=O)(O)O)[C@@H]3O)[C@H](O)[C@@H]2O)c1 please.
RESULT: 8.72

Each recorded value in this set is attributed to ChEMBL document CHEMBL1275349.
